B1: CDC25B (parent)
chain: ELKTFRLKTRSWAGERSRRELCSR

# Variants of: B1
# protocolSummary: protein stability index of a GFP-peptide fusion (GPS, HEK-293T) (PSI 1-6); higher = more stable;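 also: lentivirally expressed fusions sorted by FACS into six bins by GFP to DsRed ratio, PSI derived from sequencing read proportions per bin multiplied by bin number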
# measurementContext: c terminus: a fixed tail appended
experimentalReadout: protein stability index

Enquiry: Report protein stability index for ELKTFRIKTRSWAGERSRRELCSR please.
Return: 3.25

Enquiry: Note, next up: ELKTFRLKTRSWAGERSRRELCGR
Return: 3.44

Enquiry: Note, next up: ELKTFRLKSRSWAGERSRRELCSR
Return: 4.09

Enquiry: Note, next up: ELKQFRLKTRSWAGERSRRELCSR
Return: 3.18

Enquiry: Note, next up: ELKTFRLKTRSWAGERCRRELCSR
Return: 2.69

Enquiry: Note, next up: ELKTFRLKTRSWAGERSRRELMSR
Return: 2.96
